Organism: Rattus norvegicus
Experiment: Open TG-GATES - Regimen: Single
Type: toxicity, organism-based, Sprague-Dawley
Parameters: regimen Single, gender Male, age 6 weeks
Conditions: in vivo, po, 0 mg/kg, 9 h, tissue Liver, route gavage, dose level Control
OBSERVED PROPERTY: LIVER

O=C1CN(/N=C/c2ccc(-c3ccc([N+](=O)[O-])cc3)o2)C(O)=N1 [DANTROLENE] = 8 g
Cn1cnc([N+](=O)[O-])c1Sc1ncnc2nc[nH]c12 [AZATHIOPRINE] = 8.2 g
CS(=O)(=O)Nc1ccc([N+](=O)[O-])cc1Oc1ccccc1 [NIMESULIDE] = 8.3 g
C=CCO [ALLYL ALCOHOL] = 9.1 g
COc1ccc(O)c(C(C)(C)C)c1.COc1ccc(O)cc1C(C)(C)C [BUTYLATED HYDROXYANISOLE] = 7.6 g
O=C1NC(=O)C(c2ccccc2)(c2ccccc2)N1 [PHENYTOIN] = 8.7 g
Cc1cccc(Nc2cc(Cl)nc(SCC(=O)O)n2)c1C [PIRINIXIC ACID] = 7.9 g
CNCCC(Oc1ccc(C(F)(F)F)cc1)c1ccccc1.Cl (stereo not given) [FLUOXETINE HYDROCHLORIDE] = 9.2 g
COc1ccc(Cl)cc1C(=O)NCCc1ccc(S(=O)(=O)NC(=O)NC2CCCCC2)cc1 [GLYBURIDE] = 8.8 g
S=C=Nc1cccc2ccccc12 [1-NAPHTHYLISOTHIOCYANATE] = 8.8 g
